Measured OD 450 accompanies every entry in the list below.
- test.system: T1, soluble human TREM2 protein (TREM2 ECD-huIgG1 Fc fusion protein) (human, UniProt Q9NZC2 19-174, biotinylated)
- T1 construct: also called biotinylated soluble human TREM2 protein
- T1 sequence: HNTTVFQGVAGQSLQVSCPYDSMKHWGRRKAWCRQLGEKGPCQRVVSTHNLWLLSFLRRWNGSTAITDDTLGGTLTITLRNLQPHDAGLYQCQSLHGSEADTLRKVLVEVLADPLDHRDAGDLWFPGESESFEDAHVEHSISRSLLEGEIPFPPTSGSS
- measurement.description: ELISA, hybridoma supernatant on captured biotinylated TREM2 ECD-Fc

binder	OD 450 (OD450)
26C10 (antibody, human IgG2, V domains shown, human IgG2 from hybridoma) VH: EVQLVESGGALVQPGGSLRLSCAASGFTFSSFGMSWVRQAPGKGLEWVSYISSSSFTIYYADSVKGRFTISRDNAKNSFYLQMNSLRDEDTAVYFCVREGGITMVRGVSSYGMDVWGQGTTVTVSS VL: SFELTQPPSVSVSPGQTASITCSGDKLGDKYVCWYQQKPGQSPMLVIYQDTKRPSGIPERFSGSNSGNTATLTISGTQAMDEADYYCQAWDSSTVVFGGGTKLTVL	1.59
10E3 (antibody, human IgG2, V domains shown, human IgG2 from hybridoma) VH: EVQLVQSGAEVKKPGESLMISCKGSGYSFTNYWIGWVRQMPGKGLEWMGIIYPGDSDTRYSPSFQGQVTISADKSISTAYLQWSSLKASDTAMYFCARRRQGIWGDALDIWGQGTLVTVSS VL: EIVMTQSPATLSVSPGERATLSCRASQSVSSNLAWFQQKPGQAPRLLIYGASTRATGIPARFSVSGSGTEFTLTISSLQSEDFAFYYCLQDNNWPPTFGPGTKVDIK	0.55
16B8 (antibody, human IgG4, V domains shown, human IgG4 (G4) from hybridoma) VH: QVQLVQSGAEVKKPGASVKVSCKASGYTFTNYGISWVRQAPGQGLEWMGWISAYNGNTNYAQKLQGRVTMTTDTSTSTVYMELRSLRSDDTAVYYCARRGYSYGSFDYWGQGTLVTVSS VL: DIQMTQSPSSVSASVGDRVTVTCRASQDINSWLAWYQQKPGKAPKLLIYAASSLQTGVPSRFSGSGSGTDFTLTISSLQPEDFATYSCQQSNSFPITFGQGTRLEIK	0.59

// data source = patent US20220204611A1
